Experiment: Metabolic stability in mouse liver microsomes assessed as intrinsic clearance measured up to 120 mins by LC-MS/MS analysis
Type: ADME, Microsome
Settings: read-out: CLH
Readout type: CLint scaled (mL/min/kg)
Give a bare numeral; the unit mL/min/kg is implied.

// below: answered compounds
Compound: CNC(=O)c1cnc(Nc2ccc(C(=O)NC3CCC(Nc4ccc5c(c4)C(=O)N(C4CCC(=O)NC4=O)C5=O)CC3)cn2)cc1Nc1cccc(-c2ncc(F)cn2)c1OC (centres undefined)
CLint scaled (mL/min/kg): 54
--
Compound: CNC(=O)c1cnc(Nc2ccc(C(=O)NCCCCCNc3ccc4c(c3)C(=O)N(C3CCC(=O)NC3=O)C4=O)cn2)cc1Nc1cccc(-c2ncc(F)cn2)c1OC (centres undefined)
CLint scaled (mL/min/kg): 365
--
Compound: CNC(=O)c1cnc(Nc2ccc(C(=O)N3CC4(C3)CN(c3ccc5c(c3)C(=O)N(C3CCC(=O)NC3=O)C5=O)C4)cn2)cc1Nc1cccc(-c2ncc(F)cn2)c1OC (centres undefined)
CLint scaled (mL/min/kg): 53

Next item in the queue.
Recorded CLint scaled (compound CNC(=O)c1cnc(Nc2ccc(C(=O)NCCCCNc3cccc4c3C(=O)N(C3CCC(=O)NC3=O)C4=O)cn2)cc1Nc1cccc(-c2ncc(F)cn2)c1OC (centres undefined) ): 228

---

Assay: AUC (0 to t) in male ICR mouse at 1 mg/kg, iv measured up to 24 hrs by LC-MS/MS analysis
Type: ADME, organism-based
Conditions: in vivo
Readout type: AUC(0-t) at 24 h (ng·h/mL)
Just the number in ng·h/mL, nothing appended.

In plain terms, CNC(=O)c1cnc(Nc2ccc(C(=O)N(C)C3CCN(c4ccc5c(c4)C(=O)N(C4CCC(=O)NC4=O)C5=O)CC3)cn2)cc1Nc1cccc(-c2ncc(F)cn2)c1OC (stereo unspecified) has a documented AUC(0-t) at 24 h of 712

---

Assay: Tmax in male ICR mouse at 5 mg/kg, ip measured up to 24 hrs by LC-MS/MS analysis
Type: ADME, organism-based
Conditions: in vivo
Readout type: Tmax (min)
Note: unit min is implicit; provide only the numeric part.

Reported Tmax of CNC(=O)c1cnc(Nc2ccc(C(=O)NC3CCC(Nc4ccc5c(c4)C(=O)N(C4CCC(=O)NC4=O)C5=O)CC3)cn2)cc1Nc1cccc(-c2ncc(F)cn2)c1OC (stereo unspecified) : 24

---

Test: AUC (0 to t) in male ICR mouse at 10 mg/kg, po measured up to 24 hrs by LC-MS/MS analysis
Type: ADME, organism-based
Conditions: in vivo
Readout type: AUC(0-t) at 24 h (ng·h/mL)
Give a bare numeral; the unit ng·h/mL is implied.

The recorded AUC(0-t) at 24 h for entry CNC(=O)c1cnc(Nc2ccc(C(=O)N(C)C3CCN(c4ccc5c(c4)C(=O)N(C4CCC(=O)NC4=O)C5=O)CC3)cn2)cc1Nc1cccc(-c2ncc(F)cn2)c1OC (stereo unspecified) equals 159

---

Assay: Cmax in male ICR mouse at 10 mg/kg, po measured up to 24 hrs by LC-MS/MS analysis
Type: ADME, organism-based
Conditions: in vivo
Readout type: Cmax (ng/mL)
Note: unit ng/mL is implicit; provide only the numeric part.

For CNC(=O)c1cnc(Nc2ccc(C(=O)N(C)C3CCN(c4ccc5c(c4)C(=O)N(C4CCC(=O)NC4=O)C5=O)CC3)cn2)cc1Nc1cccc(-c2ncc(F)cn2)c1OC (stereo unspecified) the compound record lists Cmax as 124

---

Test: Cmax in male ICR mouse at 5 mg/kg, ip measured up to 24 hrs by LC-MS/MS analysis
Format: ADME, organism-based
Conditions: in vivo
Readout type: Cmax (ng/mL)
State the answer as a number, implicitly in ng/mL.

Recorded result, CNC(=O)c1cnc(Nc2ccc(C(=O)NC3CCC(Nc4ccc5c(c4)C(=O)N(C4CCC(=O)NC4=O)C5=O)CC3)cn2)cc1Nc1cccc(-c2ncc(F)cn2)c1OC (stereo unspecified) , Cmax: 1300

---

Assay: Cmax in male ICR mouse at 1 mg/kg, iv measured up to 24 hrs by LC-MS/MS analysis
Type: ADME, organism-based
Details: in vivo
Readout type: Cmax (ng/mL)
Write the number in ng/mL without appending the unit.

Per the record, CNC(=O)c1cnc(Nc2ccc(C(=O)N(C)C3CCN(c4ccc5c(c4)C(=O)N(C4CCC(=O)NC4=O)C5=O)CC3)cn2)cc1Nc1cccc(-c2ncc(F)cn2)c1OC (stereo unspecified) has Cmax of 1490

---

Experiment: Half life in male ICR mouse at 1 mg/kg, iv measured up to 24 hrs by LC-MS/MS analysis
Assay type: ADME, organism-based
Details: in vivo
Readout type: half-life
Please append the unit to your numeric answer.

Lab book: half-life of CNC(=O)c1cnc(Nc2ccc(C(=O)N(C)C3CCN(c4ccc5c(c4)C(=O)N(C4CCC(=O)NC4=O)C5=O)CC3)cn2)cc1Nc1cccc(-c2ncc(F)cn2)c1OC (stereo unspecified) noted as 39.6 min

---

Molecular target: Protein cereblon/Non-receptor tyrosine-protein kinase TYK2 (Homo sapiens, UniProt P29597+Q96SW2)
Sequence (P29597 whole entry, looked up): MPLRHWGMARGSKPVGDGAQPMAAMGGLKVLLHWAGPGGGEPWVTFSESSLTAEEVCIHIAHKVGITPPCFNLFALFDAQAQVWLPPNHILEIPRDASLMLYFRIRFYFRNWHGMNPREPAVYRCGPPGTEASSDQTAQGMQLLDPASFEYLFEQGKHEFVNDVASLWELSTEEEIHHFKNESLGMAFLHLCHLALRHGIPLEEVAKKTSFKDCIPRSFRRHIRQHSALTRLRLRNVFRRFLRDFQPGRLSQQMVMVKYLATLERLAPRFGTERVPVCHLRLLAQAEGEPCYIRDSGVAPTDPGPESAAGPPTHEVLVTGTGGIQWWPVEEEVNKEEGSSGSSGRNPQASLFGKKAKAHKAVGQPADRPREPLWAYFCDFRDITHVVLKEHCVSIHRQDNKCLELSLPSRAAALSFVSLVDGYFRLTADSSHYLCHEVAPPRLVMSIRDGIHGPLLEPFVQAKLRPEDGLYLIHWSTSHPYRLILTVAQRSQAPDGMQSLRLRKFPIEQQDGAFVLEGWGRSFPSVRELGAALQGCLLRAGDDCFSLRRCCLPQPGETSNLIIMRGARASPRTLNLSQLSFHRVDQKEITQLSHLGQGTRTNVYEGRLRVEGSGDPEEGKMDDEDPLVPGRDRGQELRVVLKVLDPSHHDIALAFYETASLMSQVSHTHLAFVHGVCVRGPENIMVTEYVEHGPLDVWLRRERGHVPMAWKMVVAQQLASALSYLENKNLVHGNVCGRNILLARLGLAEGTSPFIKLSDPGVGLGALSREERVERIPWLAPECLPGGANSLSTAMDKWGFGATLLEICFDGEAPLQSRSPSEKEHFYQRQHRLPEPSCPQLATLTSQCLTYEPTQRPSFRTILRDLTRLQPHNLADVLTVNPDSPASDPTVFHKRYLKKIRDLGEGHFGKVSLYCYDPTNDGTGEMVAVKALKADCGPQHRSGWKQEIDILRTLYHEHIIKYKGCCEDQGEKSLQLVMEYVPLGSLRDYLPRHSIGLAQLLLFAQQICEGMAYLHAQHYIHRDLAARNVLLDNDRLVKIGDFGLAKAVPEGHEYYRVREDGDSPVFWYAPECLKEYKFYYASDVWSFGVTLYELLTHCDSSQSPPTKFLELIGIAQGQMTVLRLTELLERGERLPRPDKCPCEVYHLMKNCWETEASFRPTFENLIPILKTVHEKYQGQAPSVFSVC
Sequence (Q96SW2 whole entry, looked up): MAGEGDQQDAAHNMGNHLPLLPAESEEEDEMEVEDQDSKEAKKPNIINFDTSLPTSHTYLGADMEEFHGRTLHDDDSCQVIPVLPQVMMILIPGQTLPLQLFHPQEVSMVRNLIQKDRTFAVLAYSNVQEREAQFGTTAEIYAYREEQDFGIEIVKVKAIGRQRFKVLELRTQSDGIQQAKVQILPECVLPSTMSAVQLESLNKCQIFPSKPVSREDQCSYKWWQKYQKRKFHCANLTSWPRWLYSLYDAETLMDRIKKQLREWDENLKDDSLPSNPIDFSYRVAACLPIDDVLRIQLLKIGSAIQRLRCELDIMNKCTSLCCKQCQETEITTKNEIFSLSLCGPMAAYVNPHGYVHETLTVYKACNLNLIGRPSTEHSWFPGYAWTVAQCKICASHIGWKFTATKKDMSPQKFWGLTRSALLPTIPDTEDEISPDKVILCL
Assay: PROTAC activity at CRBN/TYK2 in human Jurkat cells assessed as induction of degradation of TYK2 at 100 nM measured after 10 hrs by Western blot analysis relative to control
Format: cell-based
Readout type: Activity

Example entries begin here.
Compound: CNC(=O)c1cnc(Nc2ccc(C(=O)N3CCC(CNc4ccc5c(c4)C(=O)N(C4CCC(=O)NC4=O)C5=O)CC3)cn2)cc1Nc1cccc(-c2ncc(F)cn2)c1OC (configuration not stated)
Activity: 10%
--
Compound: CNC(=O)c1cnc(Nc2ccc(C(=O)N3CC4(CC(Nc5ccc6c(c5)C(=O)N(C5CCC(=O)NC5=O)C6=O)C4)C3)cn2)cc1Nc1cccc(-c2ncc(F)cn2)c1OC (configuration not stated)
Activity: 48%
--
Compound: CNC(=O)c1cnc(Nc2ccc(C(=O)NCCCCCCCCNc3cccc4c3C(=O)N(C3CCC(=O)NC3=O)C4=O)cn2)cc1Nc1cccc(-c2ncc(F)cn2)c1OC (configuration not stated)
Activity: 74%
--
Compound: CNC(=O)c1cnc(Nc2ccc(C(=O)NCCCCCNc3ccc4c(c3)C(=O)N(C3CCC(=O)NC3=O)C4=O)cn2)cc1Nc1cccc(-c2ncc(F)cn2)c1OC (configuration not stated)
Activity: 65%
--
Compound: CNC(=O)c1cnc(Nc2ccc(C(=O)NCCCCCCNc3cccc4c3C(=O)N(C3CCC(=O)NC3=O)C4=O)cn2)cc1Nc1cccc(-c2ncc(F)cn2)c1OC (configuration not stated)
Activity: 69%

Value of measured Activity for the entry CNC(=O)c1cnc(Nc2ccc(C(=O)NCCCNc3cccc4c3C(=O)N(C3CCC(=O)NC3=O)C4=O)cn2)cc1Nc1cccc(-c2ncc(F)cn2)c1OC (configuration not stated) : 21%

---

Assay: Inhibition of TYK2 dependent STAT3 phosphorylation in IL-12 stimulated human PBMC cells preincubated for 60 mins followed by IL-12 stimulation and measured after 60 mins by FACS assay
Format: cell-based
# IC50 annotations
Give your result in nM as a bare value.

For [2H]C([2H])([2H])NC(=O)c1nnc(NC(=O)C2CC2)cc1Nc1cccc(-c2ncn(C)n2)c1OC the compound record lists IC50 as 7.4

IC50 for CNC(=O)c1cnc(Nc2ccc(C(=O)NC3CCC(Nc4ccc5c(c4)C(=O)N(C4CCC(=O)NC4=O)C5=O)CC3)cn2)cc1Nc1cccc(-c2ncc(F)cn2)c1OC (configuration not stated) is 8.6

---

Each entry below lists one item and its recorded Papp at 2 h, 10 µM value.
Test: Apparent permeability of the compound in human Caco-2 cells at 10 uM measured up to 120 min by LC-MS/MS analysis
Assay type: ADME, cell-based

Worked set:
Molecule: CNC(=O)c1cnc(NC2CCN(CC3CCN(c4ccc5c(c4)C(=O)N(C4CCC(=O)NC4=O)C5=O)CC3)CC2)cc1Nc1cccc(-c2ncc(F)cn2)c1OC (stereo not drawn)
Papp at 2 h, 10 µM: < 0.1 ×10⁻⁶ cm/s

Molecule: CNC(=O)c1cnc(Nc2ccc(C(=O)N(C)C3CCN(c4ccc5c(c4)C(=O)N(C4CCC(=O)NC4=O)C5=O)CC3)cn2)cc1Nc1cccc(-c2ncc(F)cn2)c1OC (stereo not drawn)
Papp at 2 h, 10 µM: 0.26 ×10⁻⁶ cm/s

Could you now consider this next molecule?
Record CNC(=O)c1cnc(Nc2ccc(C(=O)NC3CCC(Nc4ccc5c(c4)C(=O)N(C4CCC(=O)NC4=O)C5=O)CC3)cn2)cc1Nc1cccc(-c2ncc(F)cn2)c1OC (stereo not drawn) , field Papp at 2 h, 10 µM: < 0.1 ×10⁻⁶ cm/s

---

Molecular target: Protein cereblon/Non-receptor tyrosine-protein kinase TYK2 (Homo sapiens, UniProt P29597+Q96SW2)
Experiment: PROTAC activity at CRBN/TYK2 in human Jurkat cells assessed as induction of degradation of TYK2 at 100 nM measured after 10 hrs by Western blot analysis relative to control
Assay type: cell-based
Binary classification by Activity, with 70% as an inclusive lower bound for True; all other cases are False.

Check out these entries, answers already filled in.
Compound: CNC(=O)c1cnc(Nc2ccc(C(=O)NCCOCCNc3cccc4c3C(=O)N(C3CCC(=O)NC3=O)C4=O)cn2)cc1Nc1cccc(-c2ncc(F)cn2)c1OC (stereo not drawn)
Cat: False
--
Compound: CNC(=O)c1cnc(Nc2ccc(C(=O)NCCNc3cccc4c3C(=O)N(C3CCC(=O)NC3=O)C4=O)cn2)cc1Nc1cccc(-c2ncc(F)cn2)c1OC (stereo not drawn)
Cat: False
--
Compound: CNC(=O)c1cnc(Nc2ccc(C(=O)NCCCCCNc3cccc4c3C(=O)N(C3CCC(=O)NC3=O)C4=O)cn2)cc1Nc1cccc(-c2ncc(F)cn2)c1OC (stereo not drawn)
Cat: True
--
Compound: CNC(=O)c1cnc(Nc2ccc(C(=O)NCCCCCCNc3ccc4c(c3)C(=O)N(C3CCC(=O)NC3=O)C4=O)cn2)cc1Nc1cccc(-c2ncc(F)cn2)c1OC (stereo not drawn)
Cat: False
--
Compound: CNC(=O)c1cnc(Nc2ccc(C(=O)N3CC4(CCN(c5ccc6c(c5)C(=O)N(C5CCC(=O)NC5=O)C6=O)CC4)C3)cn2)cc1Nc1cccc(-c2ncc(F)cn2)c1OC (stereo not drawn)
Cat: False
--
Compound: CNC(=O)c1cnc(Nc2ccc(C(=O)NCCCCNc3ccc4c(c3)C(=O)N(C3CCC(=O)NC3=O)C4=O)cn2)cc1Nc1cccc(-c2ncc(F)cn2)c1OC (stereo not drawn)
Cat: False

Does the compound CNC(=O)c1cnc(Nc2ccc(C(=O)NC3CCC(Nc4ccc5c(c4)C(=O)N(C4CCC(=O)NC4=O)C5=O)CC3)cn2)cc1Nc1cccc(-c2ncc(F)cn2)c1OC (stereo not drawn) have recorded Activity that is 70% or more?
True
